- protocol.details: chemical genetic growth profiling, strain panel (AID 1159580);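 also: tested at 20 µM; growth read once vehicle control cultures reached saturation at 30 °C; lower values mean less growth of the strain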
- run.parameters: S. cerevisiae deletion strains, growth OD, locus YBL061C, strain skt5
The whole screen tested about 5,500 compounds, of which about 2,000 (36%) were called active. Inconclusive results (about 18%) are left out. Rule as the data show it: active = normalized growth mostly below about 0.91 (no sharp cut-off); inconclusive = no clear call, values can overlap the other calls; inactive = mostly above about 0.92. Some of the results follow.
Parameter call: string, one of active, inactive

Use these answered entries as a reference point.
INSERT INTO assay_data (molecule, group_label) VALUES
  ('COc1ccc(-c2oc3ccccc3c(=O)c2O)cc1OC', 'active'),
  ('CC[C@H]1CN2CCc3cc(OC)c(OC)cc3C2C[C@@H]1CC1NCCc2cc(OC)c(OC)cc21 (some centres undefined)', 'inactive'),
  ('COC1(C)CCC2OC2(C)CCC2C1CC2(C)C (centres undefined)', 'inactive'),
  ('COc1cc2cc3c4cc(OC)c(OC)cc4cc[n+]3c(C)c2cc1OC', 'inactive'),
  ('NC(=O)N1c2ccccc2C=Cc2ccccc21', 'inactive'),
  ('NC[C@H]1O[C@H](O[C@H]2[C@H](O)[C@@H](O[C@H]3O[C@H](CO)[C@@H](O)[C@H](N)[C@H]3O)[C@H](N)C[C@@H]2N)[C@H](N)C[C@@H]1O', 'inactive'),
  ('COc1cc(O)cc(OC)c1OC', 'inactive'),
  ('C=C(C)[C@@H]1CC[C@]2(CO)CC[C@]3(C)[C@H](CCC4[C@@]5(C)CC[C@H](O)C(C)(C)C5CC[C@]43C)C12 (some centres undefined)', 'inactive');

Assay outcome for COc1cc2c(cc1O)CCNC2C (centres undefined) : what was it?
inactive

Assay outcome for CCc1cccc2c3c([nH]c12)C(CC)(CC(=O)O)OCC3 (centres undefined) : what was it?
inactive

Assay outcome for NC[C@H]1O[C@H](O[C@H]2C(O[C@@H]3O[C@H](CO)[C@@H](O)[C@H]3O)[C@@H](O)[C@H](N)C[C@@H]2N)[C@H](N)[C@@H](O)[C@@H]1O (some centres undefined) : what was it?
inactive
